// values below are reported % engagement SPATA2_C41
Molecular target: SPATA2_C41 (Homo sapiens, UniProt Q9UM82)
Construct: endogenous in cells; host or cells: 22Rv1
Sequence (Q9UM82 whole entry): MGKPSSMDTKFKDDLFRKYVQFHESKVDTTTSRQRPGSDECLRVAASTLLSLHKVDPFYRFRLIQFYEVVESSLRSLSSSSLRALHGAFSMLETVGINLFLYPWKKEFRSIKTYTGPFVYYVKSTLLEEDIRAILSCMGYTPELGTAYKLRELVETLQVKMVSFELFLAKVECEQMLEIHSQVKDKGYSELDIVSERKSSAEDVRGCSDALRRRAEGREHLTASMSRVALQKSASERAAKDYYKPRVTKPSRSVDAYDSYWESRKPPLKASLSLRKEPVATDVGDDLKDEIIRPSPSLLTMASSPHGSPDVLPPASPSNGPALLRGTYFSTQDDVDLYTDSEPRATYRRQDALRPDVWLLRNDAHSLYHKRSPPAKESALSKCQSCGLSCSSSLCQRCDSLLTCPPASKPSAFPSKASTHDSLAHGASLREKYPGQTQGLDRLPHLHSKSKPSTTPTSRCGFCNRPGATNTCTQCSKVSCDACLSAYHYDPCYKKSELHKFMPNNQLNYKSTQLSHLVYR
Assay: IA-DTB cysteine engagement
Format: binding
Conditions: 22Rv1 cells, 20 μM probe, 1 h, relative to DMSO
Unit % implied. Number only.

compound	measurementUnits	assayResult
C=CC(=O)N1C[C@H](c2ccc(Br)cc2)[C@@H]1C(=O)Nc1cccc2cccnc12	%	91.75
C=CC(=O)N1C[C@@H](c2ccc(Br)cc2)[C@H]1C(=O)Nc1cccc2cccnc12	%	58
C=CC(=O)N1C[C@H](c2ccc(Br)cc2)[C@H]1C(=O)Nc1cccc2cccnc12 [MY-3B]	%	29.5

What value of % engagement SPATA2_C41 has been reported for the following compound? C=CC(=O)N1C[C@H](c2ccc(Br)cc2)[C@H]1C(=O)Nc1cccc2cccnc12 [MY-3A] 24.5

----------
Target: CDKN2AIP_C516 (Homo sapiens)
Construct: endogenous in cells; host or cells: 22Rv1
Sequence (Q9NXV6 whole entry): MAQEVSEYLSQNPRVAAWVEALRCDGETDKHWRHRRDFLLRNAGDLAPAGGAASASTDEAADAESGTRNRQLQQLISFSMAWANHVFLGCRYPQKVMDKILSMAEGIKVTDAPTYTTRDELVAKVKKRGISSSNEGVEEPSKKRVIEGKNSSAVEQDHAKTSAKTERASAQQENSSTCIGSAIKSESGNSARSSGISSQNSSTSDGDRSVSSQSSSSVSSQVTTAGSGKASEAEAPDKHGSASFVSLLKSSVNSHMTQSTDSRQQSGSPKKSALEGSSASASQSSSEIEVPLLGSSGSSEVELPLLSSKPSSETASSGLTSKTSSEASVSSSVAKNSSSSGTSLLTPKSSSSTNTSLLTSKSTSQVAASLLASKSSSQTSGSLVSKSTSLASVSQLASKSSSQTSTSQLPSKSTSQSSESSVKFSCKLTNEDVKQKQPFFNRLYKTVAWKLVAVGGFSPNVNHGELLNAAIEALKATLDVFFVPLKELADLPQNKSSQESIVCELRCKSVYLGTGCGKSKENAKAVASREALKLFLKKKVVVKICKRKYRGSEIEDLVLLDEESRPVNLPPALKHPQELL
Assay: IA-DTB cysteine engagement
Format: binding
Settings: 22Rv1 cells, 20 μM probe, 1 h, relative to DMSO
metric: % engagement CDKN2AIP_C516
Answer format reminder: number followed by unit.

Here's what some known entries look like.
compound	% engagement CDKN2AIP_C516
C=CC(=O)N1C[C@H](c2ccc(Br)cc2)[C@H]1C(=O)Nc1cccc2cccnc12 [MY-3A]	12.75%
C=CC(=O)N1C[C@H](c2ccc(Br)cc2)[C@H]1C(=O)Nc1cccc2cccnc12 [MY-3B]	18.75%
C=CC(=O)N1C[C@H](c2ccc(Br)cc2)[C@@H]1C(=O)Nc1cccc2cccnc12 [MY-1B]	24%

What value of % engagement CDKN2AIP_C516 has been reported for the following compound? C=CC(=O)N1C[C@@H](c2ccc(Br)cc2)[C@H]1C(=O)Nc1cccc2cccnc12 [MY-1A] 66.5%

----------
Molecular target: DHX9_C608 (Homo sapiens)
Construct: endogenous in cells; host or cells: 22Rv1
Sequence (Q08211 whole entry): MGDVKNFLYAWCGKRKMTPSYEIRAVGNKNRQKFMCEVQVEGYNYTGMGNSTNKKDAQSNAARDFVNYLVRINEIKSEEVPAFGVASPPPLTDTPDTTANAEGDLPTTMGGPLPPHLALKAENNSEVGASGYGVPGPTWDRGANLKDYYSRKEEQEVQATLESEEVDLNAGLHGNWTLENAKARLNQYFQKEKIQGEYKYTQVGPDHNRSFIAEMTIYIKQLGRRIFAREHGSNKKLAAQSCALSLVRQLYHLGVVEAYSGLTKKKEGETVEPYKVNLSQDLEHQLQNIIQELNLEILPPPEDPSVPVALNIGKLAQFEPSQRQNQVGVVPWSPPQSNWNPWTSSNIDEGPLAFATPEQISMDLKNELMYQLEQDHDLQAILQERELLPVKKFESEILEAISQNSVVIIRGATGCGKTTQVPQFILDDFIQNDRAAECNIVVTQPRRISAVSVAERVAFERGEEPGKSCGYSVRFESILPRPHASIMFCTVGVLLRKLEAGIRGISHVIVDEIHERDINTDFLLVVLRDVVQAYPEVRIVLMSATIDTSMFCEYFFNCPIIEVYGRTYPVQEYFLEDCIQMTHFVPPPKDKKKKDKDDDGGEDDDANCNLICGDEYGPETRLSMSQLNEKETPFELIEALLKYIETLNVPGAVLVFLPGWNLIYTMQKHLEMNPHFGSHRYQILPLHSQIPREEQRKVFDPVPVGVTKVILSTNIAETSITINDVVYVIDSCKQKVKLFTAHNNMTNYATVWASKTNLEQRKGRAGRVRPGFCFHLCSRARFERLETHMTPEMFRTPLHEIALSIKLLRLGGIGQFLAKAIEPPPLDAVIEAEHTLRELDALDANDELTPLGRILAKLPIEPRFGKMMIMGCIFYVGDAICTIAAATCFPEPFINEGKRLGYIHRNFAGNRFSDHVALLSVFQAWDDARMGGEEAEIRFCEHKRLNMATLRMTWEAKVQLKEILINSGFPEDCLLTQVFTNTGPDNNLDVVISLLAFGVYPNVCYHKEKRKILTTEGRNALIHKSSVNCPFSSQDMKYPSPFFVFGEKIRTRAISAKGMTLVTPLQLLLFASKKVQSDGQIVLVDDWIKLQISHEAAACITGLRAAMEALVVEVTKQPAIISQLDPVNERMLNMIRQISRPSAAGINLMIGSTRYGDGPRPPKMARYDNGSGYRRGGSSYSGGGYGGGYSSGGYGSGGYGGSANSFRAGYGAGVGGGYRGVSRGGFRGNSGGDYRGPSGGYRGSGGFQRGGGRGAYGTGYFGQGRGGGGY
Assay: IA-DTB cysteine engagement
Assay type: binding
Conditions: 22Rv1 cells, 20 μM probe, 1 h, relative to DMSO
// values below are reported % engagement DHX9_C608
Answer format reminder: number followed by unit.

molecule	assayResult
C=CC(=O)N1C[C@H](c2ccc(Br)cc2)[C@H]1C(=O)Nc1cccc2cccnc12 [MY-3A]	16%
C=CC(=O)N1C[C@H](c2ccc(Br)cc2)[C@H]1C(=O)Nc1cccc2cccnc12 [MY-3B]	69.5%
C=CC(=O)N1C[C@@H](c2ccc(Br)cc2)[C@H]1C(=O)Nc1cccc2cccnc12	−10.5%

What value of % engagement DHX9_C608 has been reported for the following molecule? C=CC(=O)N1C[C@H](c2ccc(Br)cc2)[C@@H]1C(=O)Nc1cccc2cccnc12 −11%

----------
Molecular target: PNPLA8_C100 (Homo sapiens)
Construct: endogenous in cells; host or cells: 22Rv1
Sequence (Q9NP80 1-782): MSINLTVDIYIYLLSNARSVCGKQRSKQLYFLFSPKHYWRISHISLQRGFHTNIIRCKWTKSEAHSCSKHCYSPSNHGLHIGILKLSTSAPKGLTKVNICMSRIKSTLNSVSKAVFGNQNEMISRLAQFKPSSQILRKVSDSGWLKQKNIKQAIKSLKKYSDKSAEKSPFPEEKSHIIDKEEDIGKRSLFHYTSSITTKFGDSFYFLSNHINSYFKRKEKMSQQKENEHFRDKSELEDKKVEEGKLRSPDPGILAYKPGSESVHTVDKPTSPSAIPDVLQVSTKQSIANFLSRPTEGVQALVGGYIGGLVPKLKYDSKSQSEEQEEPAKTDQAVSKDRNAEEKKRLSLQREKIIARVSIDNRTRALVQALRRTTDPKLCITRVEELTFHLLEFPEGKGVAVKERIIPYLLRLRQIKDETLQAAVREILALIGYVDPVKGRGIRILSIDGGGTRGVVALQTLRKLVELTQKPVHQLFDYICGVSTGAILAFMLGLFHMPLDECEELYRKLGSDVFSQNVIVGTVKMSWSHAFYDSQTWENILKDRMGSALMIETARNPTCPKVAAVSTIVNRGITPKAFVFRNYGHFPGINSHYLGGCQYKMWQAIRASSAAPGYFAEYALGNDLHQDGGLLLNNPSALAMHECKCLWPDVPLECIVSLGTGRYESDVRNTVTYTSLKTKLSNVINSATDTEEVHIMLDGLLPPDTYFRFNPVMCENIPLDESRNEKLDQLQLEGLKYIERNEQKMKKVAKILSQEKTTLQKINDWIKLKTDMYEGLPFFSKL
Experiment: IA-DTB cysteine engagement
Assay type: binding
Settings: 22Rv1 cells, 20 μM probe, 1 h, relative to DMSO
metric: % engagement PNPLA8_C100 (%)
Unit % implied. Number only.

Here's what some known entries look like.
compound	% engagement PNPLA8_C100 / %
C=CC(=O)N1C[C@H](c2ccc(Br)cc2)[C@H]1C(=O)Nc1cccc2cccnc12 [MY-3B]	70.5
C=CC(=O)N1C[C@H](c2ccc(Br)cc2)[C@H]1C(=O)Nc1cccc2cccnc12 [MY-3A]	48
C=CC(=O)N1C[C@H](c2ccc(Br)cc2)[C@@H]1C(=O)Nc1cccc2cccnc12	59.5

Now look at this one.
What value of % engagement PNPLA8_C100 has been reported for the following compound? C=CC(=O)N1C[C@@H](c2ccc(Br)cc2)[C@H]1C(=O)Nc1cccc2cccnc12 67

----------
Biological target: BLOC1S2_C41 (Homo sapiens, UniProt Q6QNY1)
Construct: endogenous in cells; host or cells: 22Rv1
Sequence (Q6QNY1 1-142): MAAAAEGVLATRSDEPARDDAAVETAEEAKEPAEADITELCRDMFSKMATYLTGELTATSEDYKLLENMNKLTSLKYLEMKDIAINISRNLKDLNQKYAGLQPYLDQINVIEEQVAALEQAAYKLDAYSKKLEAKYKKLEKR
Assay: IA-DTB cysteine engagement
Assay type: binding
Conditions: 22Rv1 cells, 20 μM probe, 1 h, relative to DMSO
// values below are reported % engagement BLOC1S2_C41
Unit % implied. Number only.

Here's what some known entries look like.
compound	% engagement BLOC1S2_C41, %
C=CC(=O)N1C[C@H](c2ccc(Br)cc2)[C@H]1C(=O)Nc1cccc2cccnc12 [MY-3A]	3.5
C=CC(=O)N1C[C@H](c2ccc(Br)cc2)[C@@H]1C(=O)Nc1cccc2cccnc12	70
C=CC(=O)N1C[C@H](c2ccc(Br)cc2)[C@H]1C(=O)Nc1cccc2cccnc12 [MY-3B]	66.5

What value of % engagement BLOC1S2_C41 has been reported for the following compound? C=CC(=O)N1C[C@@H](c2ccc(Br)cc2)[C@H]1C(=O)Nc1cccc2cccnc12 6

----------
Target: UNC13A_C999 (Homo sapiens, UniProt Q9UPW8)
Construct: endogenous in cells; host or cells: 22Rv1
Test: IA-DTB cysteine engagement
Format: binding
Conditions: 22Rv1 cells, 20 μM probe, 1 h, relative to DMSO
// values below are reported % engagement UNC13A_C999
Unit % implied. Number only.

Here's what some known entries look like.
molecule	metric	assayResult
C=CC(=O)N1C[C@@H](c2ccc(Br)cc2)[C@H]1C(=O)Nc1cccc2cccnc12 [MY-1A]	% engagement UNC13A_C999	54.5
C=CC(=O)N1C[C@H](c2ccc(Br)cc2)[C@@H]1C(=O)Nc1cccc2cccnc12 [MY-1B]	% engagement UNC13A_C999	100
C=CC(=O)N1C[C@H](c2ccc(Br)cc2)[C@H]1C(=O)Nc1cccc2cccnc12 [MY-3B]	% engagement UNC13A_C999	23.5

Now look at this one.
What value of % engagement UNC13A_C999 has been reported for the following molecule? C=CC(=O)N1C[C@H](c2ccc(Br)cc2)[C@H]1C(=O)Nc1cccc2cccnc12 [MY-3A] 100

----------
Target: HSDL1_C265 (Homo sapiens)
Construct: endogenous in cells; host or cells: 22Rv1
Sequence (Q3SXM5 whole entry): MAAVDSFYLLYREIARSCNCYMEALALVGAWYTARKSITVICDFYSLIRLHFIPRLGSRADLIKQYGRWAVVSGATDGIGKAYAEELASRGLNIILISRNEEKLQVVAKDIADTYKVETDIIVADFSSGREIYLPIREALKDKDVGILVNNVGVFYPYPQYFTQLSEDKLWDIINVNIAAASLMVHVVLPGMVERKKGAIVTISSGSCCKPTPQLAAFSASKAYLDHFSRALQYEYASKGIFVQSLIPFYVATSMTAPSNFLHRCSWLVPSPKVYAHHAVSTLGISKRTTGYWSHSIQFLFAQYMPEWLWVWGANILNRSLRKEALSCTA
Assay: IA-DTB cysteine engagement
Assay type: binding
Settings: 22Rv1 cells, 20 μM probe, 1 h, relative to DMSO
Experimental: Sample preparation: Cells (adherent: 15 cm dishes, suspension: 2 million cells/mL) were treated with electrophilic probes in situ for indicated times and concentrations, washed with ice-cold PBS, and flash frozen in liquid nitrogen. […] Whole cell lysates protein content was measured using a standard DC protein assay (Bio-Rad) and 500 μL (2 mg/mL protein content) were treated with 5 μL of 10 mM 1A-DTB (in DMSO) for 1 h at ambient temperature with occasional vortexing. […]
metric: % engagement HSDL1_C265 (%)
Unit % implied. Number only.

compound	targetOfAssay	% engagement HSDL1_C265 (%)
C=CC(=O)N1C[C@H](c2ccc(Br)cc2)[C@H]1C(=O)Nc1cccc2cccnc12 [MY-3A]	HSDL1_C265 (Homo sapiens)	64.25

What value of % engagement HSDL1_C265 has been reported for the following compound? C=CC(=O)N1C[C@H](c2ccc(Br)cc2)[C@@H]1C(=O)Nc1cccc2cccnc12 54

What value of % engagement HSDL1_C265 has been reported for the following compound? C=CC(=O)N1C[C@@H](c2ccc(Br)cc2)[C@H]1C(=O)Nc1cccc2cccnc12 52

What value of % engagement HSDL1_C265 has been reported for the following compound? C=CC(=O)N1C[C@H](c2ccc(Br)cc2)[C@H]1C(=O)Nc1cccc2cccnc12 [MY-3B] 82
